- assayed-target: human emopamil binding protein and human 7-dehydrocholesterol reductase (hEBP-DHCR7) (Homo sapiens (Human))
property-name: Ki (nM)
Output spec: scalar in nM, unitless text.

Data request: Report Ki for CC(C)n1nc(-c2cncc(C(F)(F)F)c2)cc1[C@@H]1CC[C@H](N2CCCOCC2)C1 (single isomer, unassigned) [62*] please.
Data returned: 13.1

Data request: Report Ki for CC(C)n1nc(-c2ccccc2F)cc1[C@H]1[C@@H]2C[C@@H](N3CCCOCC3)C[C@@H]21 [Compound 194*] please.
Data returned: 13.1

Data request: Report Ki for CC(C)n1nc(-c2cncc(C(F)(F)F)c2)nc1[C@@H]1CC[C@@H](N2CCOCC2)C1 (single isomer, unassigned) [Compound 115*] please.
Data returned: 35

Data request: Report Ki for CC(C)n1nc(-c2cncc(C(F)(F)F)c2)cc1[C@@H]1CC[C@H](N2CCOCC2)C1 (single isomer, unassigned) [61*] please.
Data returned: 69.1

Data request: Report Ki for CC(C)n1nc(-c2ccc(OC(F)F)cc2)cc1[C@H]1[C@@H]2C[C@H](N3CCCOCC3)C[C@@H]21 (single isomer, unassigned) [Compound 201*] please.
Data returned: 11

Data request: Report Ki for CC(C)n1nc(-c2cccc(C(F)(F)F)n2)cc1[C@H]1[C@@H]2C[C@H](N3CCN(C4CCC4)CC3)C[C@@H]21 [Compound 85] please.
Data returned: 472

Data request: Report Ki for CC(C)n1nc(-c2cccc(C(F)(F)F)n2)nc1[C@@H]1CCC(N2CCOCC2)C1 (stereo in doubt) [26*] please.
Data returned: 22.6

Data request: Report Ki for CC(C)n1nc(-c2ccc(OC(F)(F)F)cc2)cc1[C@H]1[C@@H]2C[C@H](N3CCCOCC3)C[C@@H]21 [Compound 185*] please.
Data returned: 12

Data request: Report Ki for CC(C)n1nc(-c2cncc(C(F)(F)F)c2)nc1[C@H]1[C@@H]2C[C@H](N3CCOC[C@@H]3C)C[C@@H]21 [Compound 122] please.
Data returned: 26.6

Data request: Report Ki for CC(C)n1nc(-c2ccc(F)cc2)cc1[C@H]1[C@@H]2C[C@H](N3CCCOCC3)C[C@@H]21 [Compound 183*] please.
Data returned: 10.6

Data request: Report Ki for CC(C)n1nc(-c2ccc(C(F)(F)F)nc2)nc1[C@H]1CC[C@@H](N2CCCOCC2)C1 [Compound 6] please.
Data returned: 34.7

Data request: Report Ki for CC[C@H]1CN([C@@H]2CC[C@H](c3nc(-c4ccc(C(F)(F)F)nc4)nn3C(C)C)C2)CCO1 [Compound 128] please.
Data returned: 118

Data request: Report Ki for CCn1nc(-c2cncc(C(F)(F)F)c2)cc1[C@H]1[C@@H]2C[C@H](N3CCCOCC3)C[C@@H]21 [Compound 54] please.
Data returned: 10.6

Data request: Report Ki for CC(C)n1nc(-c2cc(C(F)(F)F)ncn2)cc1[C@H]1[C@@H]2C[C@H](N3CCOC[C@H]3C)C[C@@H]21 [Compound 106] please.
Data returned: 15.1

====

- assayed-target: human emopamil binding protein and human 7-dehydrocholesterol reductase (hEBP-DHCR7) (Homo sapiens (Human), UniProt Q15125)
- Sequence (Q15125 whole entry): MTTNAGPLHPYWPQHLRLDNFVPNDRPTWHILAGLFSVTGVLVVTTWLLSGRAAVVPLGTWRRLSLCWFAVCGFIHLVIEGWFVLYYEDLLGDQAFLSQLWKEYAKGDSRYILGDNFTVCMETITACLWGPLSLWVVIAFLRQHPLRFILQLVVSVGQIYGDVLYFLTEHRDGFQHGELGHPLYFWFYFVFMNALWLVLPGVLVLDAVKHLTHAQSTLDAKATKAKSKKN
property-name: pKi
// scale note: pKi = -log10(conc_M); give the bare number

Data request: Report pKi for CC(C)n1nc(-c2ccc(C(F)(F)F)nc2)cc1[C@@H]1CC[C@@H](N2CCN(CCO)CC2)C1 (single isomer, unassigned) please.
Data returned: 7.51

Data request: Report pKi for CC(C)n1nc(-c2cncc(C(F)(F)F)c2)cc1[C@H]1CC[C@@H](N2CCCOCC2)C1 (single isomer, unassigned) please.
Data returned: 7.81

Data request: Report pKi for COCCN1CCN([C@@H]2CC[C@@H](c3nc(-c4ccc(C(F)(F)F)nc4)nn3C(C)C)C2)CC1 please.
Data returned: 7.06

Data request: Report pKi for CC(C)n1nc(-c2cccc(C(F)(F)F)c2)nc1[C@H]1[C@@H]2C[C@H](N3CCOC[C@H]3C)C[C@@H]21 (single isomer, unassigned) please.
Data returned: 8.06

Data request: Report pKi for CC(C)n1nc(-c2cncc(C(F)(F)F)c2)nc1[C@@H]1CC[C@H](N2CCOCC2)C1 (single isomer, unassigned) please.
Data returned: 7.46

Data request: Report pKi for CC(C)n1nc(-c2cccc(C#N)c2)cc1[C@H]1[C@@H]2C[C@H](N3CCCOCC3)C[C@@H]21 please.
Data returned: 8.09

Data request: Report pKi for CC(C)n1nc(-c2cnc(C(F)(F)F)nc2)cc1[C@H]1[C@@H]2C[C@@H](N3CCOC[C@H]3C)C[C@@H]21 please.
Data returned: 6.20

Data request: Report pKi for COCCN1CCN([C@@H]2CC[C@@H](c3cc(-c4ccc(C(F)(F)F)nc4)nn3C(C)C)C2)CC1 (single isomer, unassigned) please.
Data returned: 7.96

Data request: Report pKi for CC(C)n1nc(-c2cncc(C(F)(F)F)c2)nc1[C@H]1[C@@H]2C[C@H](N3CCO[C@H](C)C3)C[C@@H]21 please.
Data returned: 7.48

Data request: Report pKi for CC(C)n1nc(-c2ccc(C(F)(F)F)c(F)c2)nc1[C@@H]1CC[C@@H](N2CCOCC2)C1 (single isomer, unassigned) please.
Data returned: 7.83

Data request: Report pKi for CC(C)n1nc(-c2cncc(C(F)(F)F)c2)nc1[C@H]1CC[C@@H](N2CCOCC2)C1 (single isomer, unassigned) please.
Data returned: 7.49

Data request: Report pKi for CC(C)n1nc(-c2cnc(C(F)(F)F)nc2)nc1[C@H]1CC[C@H](N2CCOCC2)C1 please.
Data returned: 6.61

Data request: Report pKi for CC(C)n1nc(-c2cccc(OC(F)F)c2)nc1[C@H]1[C@@H]2C[C@H](N3CCCOCC3)C[C@@H]21 please.
Data returned: 7.92
